The entries below come with measured growth inhibition values attached.
Experiment: NCI Yeast Anticancer Drug Screen. Data for the bub3 strain (AID 167)
Conditions: S. cerevisiae bub3 mutant strain, at 50.0 µM, active compounds read high
About 79,000 compounds went through this panel and 15% of them were active in at least one assay; those are over-represented in the sample as a whole.

molecule: O=NN(CC(=O)O)c1ccc2ccccc2c1
unitName: %
growth inhibition: -14.9
//
molecule: C[Si](C)(C)CN=P(c1ccccc1)(c1ccccc1)c1ccccc1
unitName: %
growth inhibition: 3.7
//
molecule: Cc1c(C(=O)/C=C/c2ccc(N(C)C)cc2)c(=O)n(-c2ccccc2)n1C
unitName: %
growth inhibition: -29.7
//
molecule: CCCCCCCCCSc1nc2ccccc2s1
unitName: %
growth inhibition: 14.5
//
molecule: CSc1nc(NC2OC(COC(C)=O)C(OC(C)=O)C(OC(C)=O)C2OC(C)=O)c2c(n1)OCC2=O (configuration not stated)
unitName: %
growth inhibition: 30.9
//
molecule: OC1CCCCC2CC2C1O (configuration not stated)
unitName: %
growth inhibition: 3.55
//
molecule: O=C1CCC(=O)N1CC1CC2CCC1C2 (configuration not stated)
unitName: %
growth inhibition: 4.4
//
molecule: Cc1cc(C)c(C#N)c(SC(C(=O)NC(C)(C)C)c2ccccc2)n1 (configuration not stated)
unitName: %
growth inhibition: -8.15
//
molecule: O=C1c2ccccc2C(c2ccccc2)C1c1ccccc1 (configuration not stated)
unitName: %
growth inhibition: 20.6
//
molecule: CCOc1ccc(CC(=O)Nc2cc([N+](=O)[O-])ccc2NCCN(CC)CC)cc1
unitName: %
growth inhibition: 0.2
//
molecule: CCN(CC)CC(Oc1ccccc1)C(=O)c1ccccc1 (configuration not stated)
unitName: %
growth inhibition: -11.4
//
molecule: O=C1CC(SC(=S)N2CCCCC2)C(=O)N1c1ccccc1 (configuration not stated)
unitName: %
growth inhibition: 7.25
